Here the recorded IC50 is given for each entry.
MEASURED TARGET: KRAS G12C (Homo sapiens, UniProt P01116+P62937, G12C)
ASSAY PROTOCOL: Disruption of BRAF RBD interaction with Ras (FRET / MOA assay, with Cyclophilin A)
Format: biochemical
CONDITION NOTES: read-out: KRAS G12C FRET data, IC50
From the text: This protocol may also be executed substituting other Ras proteins or nucleotides. The purpose of this biochemical assay was to measure the ability of test compounds to facilitate ternary complex formation between a nucleotide-loaded K-Ras isoform and Cyclophilin A; the resulting ternary complex disrupts binding to a BRAF^RBD construct, inhibiting K-Ras signaling through a RAF effector. Data is reported as IC50 values. […]
Sequence (P01116 1-169 isoform P01116-2 G12C): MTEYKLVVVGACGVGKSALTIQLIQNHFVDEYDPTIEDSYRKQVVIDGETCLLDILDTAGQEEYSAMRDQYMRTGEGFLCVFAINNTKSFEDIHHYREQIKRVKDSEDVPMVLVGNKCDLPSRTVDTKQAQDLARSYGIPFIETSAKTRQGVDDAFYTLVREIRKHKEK
Sequence (P62937 whole entry): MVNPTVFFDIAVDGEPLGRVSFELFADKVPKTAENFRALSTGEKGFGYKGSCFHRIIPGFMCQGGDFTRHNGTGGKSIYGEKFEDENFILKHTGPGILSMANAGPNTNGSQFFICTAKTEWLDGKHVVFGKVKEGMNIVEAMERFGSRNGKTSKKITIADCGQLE

CCn1c(-c2cccnc2[C@H](C)OC)c2c3cc(ccc31)-c1csc(n1)C[C@H](NC(=O)[C@H](C(C)C)N(C)C(=O)N1CC[C@H](N(C)C)C1)C(=O)N1CCC[C@H](N1)C(=O)OCC(C)(C)C2: 100 to 1000 nM

Now for the compound whose IC50 we want.
Test system KRAS G12C (Homo sapiens, UniProt P01116+P62937, G12C); read-out IC50; what value for CCn1c(-c2cccnc2[C@H](C)OC)c2c3cc(ccc31)-c1csc(n1)C[C@H](NC(=O)[C@H](C(C)C)N(C)C(=O)N1CCC13CCN(C)CC3)C(=O)N1CCC[C@H](N1)C(=O)OCC(C)(C)C2 ? 10 to 100 nM

* * *

MEASURED TARGET: KRAS G12C (Homo sapiens, UniProt P01116+P62937, G12C)
ASSAY PROTOCOL: Ras-Raf disruption / FRET / MOA assay (BRAF RBD)
Type: biochemical
CONDITION NOTES: KRAS G12C FRET data IC50, Ras-Raf disruption, with Cyclophilin A
Sequence (P01116 1-169 isoform P01116-2 G12C limits assumed): as the sequence (P01116 1-169 isoform P01116-2 G12C) above
Sequence (P62937 whole entry): as the sequence (P62937 whole entry) above
Here the recorded IC50 is given for each entry.

These solved cases illustrate the format of a correct answer.
CCn1c(-c2cc(C3CCN(C)CC3)cnc2[C@H](C)OC)c2c3cc(ccc31)-c1cc(O)cc(c1)C[C@H](NC(=O)[C@H](C1CCCC1)N(C)C(=O)CN(C)C(=O)[C@H]1CN1)C(=O)N1CCC[C@H](N1)C(=O)OCC(C)(C)C2: < 10 nM
CCn1c(-c2cccnc2[C@H](C)OC)c2c3cc(ccc31)-c1cc(O)cc(c1)C[C@H](NC(=O)[C@H](C(C)C)N(C)C(=O)CN(C)C(=O)[C@@H]1N[C@@H]1C(C)C)C(=O)N1CCC[C@H](N1)C(=O)OCC(C)(C)C2: < 10 nM
CCn1c(-c2cccnc2[C@H](C)OC)c2c3cc(ccc31)-c1cc(O)cc(c1)C[C@H](NC(=O)[C@H](C(C)C)N(C)C(=O)CN(C)C(=O)[C@@H]1CN1CCCC#N)C(=O)N1CCC[C@H](N1)C(=O)OCC(C)(C)C2 (some centres unmarked): < 10 nM

I would be grateful if you could share the reported IC50 for CCn1c(-c2cccnc2[C@H](C)OC)c2c3cc(ccc31)-c1cc(O)cc(c1)C[C@H](NC(=O)[C@H](C(C)C)N(C)C(=O)CN(C)C(=O)[C@H]1CN1CCCN1CCCC1=O)C(=O)N1CCC[C@H](N1)C(=O)OCC(C)(C)C2 (some centres unmarked) . < 10 nM

I would be grateful if you could share the reported IC50 for CCn1c(-c2cccnc2[C@H](C)OC)c2c3cc(ccc31)-c1cc(O)cc(c1)C[C@H](NC(=O)[C@H](C1CCCC1)N(C)C(=O)[C@H](C)N(C)C(=O)[C@@H]1N[C@@H]1C1CC1)C(=O)N1CCC[C@H](N1)C(=O)OCC(C)(C)C2 . 10 to 100 nM

I would be grateful if you could share the reported IC50 for CCn1c(-c2cccnc2[C@H](C)OC)c2c3cc(ccc31)-c1cc(O)cc(c1)C[C@H](NC(=O)[C@H](C(C)C)N(C)C(=O)CN(C)C(=O)[C@H]1CN1CC(=O)N(C)C)C(=O)N1CCC[C@H](N1)C(=O)OCC(C)(C)C2 (some centres unmarked) . < 10 nM

I would be grateful if you could share the reported IC50 for CCn1c(-c2cccnc2[C@H](C)OC)c2c3cc(ccc31)-c1cc(O)cc(c1)C[C@H](NC(=O)[C@H](C(C)C)N(C)C(=O)CN(C)C(=O)[C@@H]1CN1CC1COC1)C(=O)N1CCC[C@H](N1)C(=O)OCC(C)(C)C2 (some centres unmarked) . 10 to 100 nM

I would be grateful if you could share the reported IC50 for CCn1c(-c2cccnc2[C@H](C)OC)c2c3cc(ccc31)-c1cc(O)cc(c1)C[C@H](NC(=O)[C@H](C(C)C)N(C)C(=O)CN(C)C(=O)[C@H]1CN1CCCOC)C(=O)N1CCC[C@H](N1)C(=O)OCC(C)(C)C2 (some centres unmarked) . < 10 nM

* * *

MEASURED TARGET: KRAS G13D (Homo sapiens, UniProt P01116+P62937, G13D)
Sequence (P01116 1-169 isoform P01116-2 G13D limits assumed): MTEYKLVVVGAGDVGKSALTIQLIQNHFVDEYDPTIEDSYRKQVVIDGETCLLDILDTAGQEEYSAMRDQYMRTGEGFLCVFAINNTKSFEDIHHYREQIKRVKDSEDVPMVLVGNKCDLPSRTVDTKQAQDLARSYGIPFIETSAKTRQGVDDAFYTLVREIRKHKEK
Sequence (P62937 whole entry): as the sequence (P62937 whole entry) above
ASSAY PROTOCOL: Disruption of BRAF RBD interaction with Ras (FRET / MOA assay, with Cyclophilin A)
Assay type: biochemical
CONDITION NOTES: KRAS G13D; read-out: KRAS G13D FRET data IC50
RECORDED ENDPOINT: IC50

These solved cases illustrate the format of a correct answer.
CCn1c(-c2cccnc2[C@H](C)OC)c2c3cc(ccc31)-c1csc(n1)C[C@H](NC(=O)[C@H](C(C)C)N(C)C(=O)N1CC[C@H](N(C)C)C1)C(=O)N1CCC[C@H](N1)C(=O)OCC(C)(C)C2 [Example A603]: 0.1 to 1 µM
CCn1c(-c2cccnc2[C@H](C)OC)c2c3cc(ccc31)-c1cc(O)cc(c1)C[C@H](NC(=O)[C@H](C(C)C)N(C)C(=O)C1(N)CC1)C(=O)N1CCC[C@H](N1)C(=O)OCC(C)(C)C2 [Example A168]: 0.1 to 1 µM
CCn1c(-c2cccnc2[C@H](C)OC)c2c3cc(ccc31)-c1csc(n1)C[C@H](NC(=O)[C@H](C(C)C)N(C)C(=O)[C@@H]1OCC[C@@H]1C)C(=O)N1CCC[C@H](N1)C(=O)OCC(C)(C)C2 [Example A143]: 1 to 10 µM

Now for the compound whose IC50 we want.
I would be grateful if you could share the reported IC50 for C=CC(=O)N1CC[C@@H](N(C)C(=O)N(C)[C@H](C(=O)N[C@H]2Cc3nc(cs3)-c3ccc4c(c3)c(c(-c3cccnc3[C@H](C)OC)n4CC)CC(C)(C)COC(=O)[C@@H]3CCCN(N3)C2=O)C(C)C)C1 [Example A349] . 0.1 to 1 µM

* * *

MEASURED TARGET: KRAS G12S (Homo sapiens, UniProt P01116+P62937, G12S)
Sequence (P01116 1-169 isoform P01116-2 G12S limits assumed): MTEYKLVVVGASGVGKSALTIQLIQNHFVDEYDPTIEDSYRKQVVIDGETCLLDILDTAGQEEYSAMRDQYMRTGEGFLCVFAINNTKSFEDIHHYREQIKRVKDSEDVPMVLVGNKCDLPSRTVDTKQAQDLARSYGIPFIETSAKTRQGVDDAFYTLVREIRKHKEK
Sequence (P62937 whole entry): as the sequence (P62937 whole entry) above
ASSAY PROTOCOL: Ras-Raf disruption / FRET / MOA assay (BRAF RBD)
Type: biochemical
CONDITION NOTES: KRAS G12S FRET data IC50, Ras-Raf disruption, with Cyclophilin A
RECORDED ENDPOINT: IC50

CCn1c(-c2cccnc2[C@H](C)OC)c2c3cc(ccc31)-c1cc(O)cc(c1)C[C@H](NC(=O)[C@H](C(C)C)N(C)C(=O)CN(C)C(=O)[C@H]1N[C@@H]1C1CC1)C(=O)N1CCC[C@H](N1)C(=O)OCC(C)(C)C2 [Example 136]: 10 to 100 nM

Now for the compound whose IC50 we want.
I would be grateful if you could share the reported IC50 for CCn1c(-c2cccnc2[C@H](C)OC)c2c3cc(ccc31)-c1cc(O)cc(c1)C[C@H](NC(=O)[C@H](C(C)C)N(C)C(=O)C13CC(CN1C(=O)[C@H]1CN1)C3)C(=O)N1CCC[C@H](N1)C(=O)OCC(C)(C)C2 [Example 164] . 100 to 1000 nM

* * *

Here the recorded pIC50 is given for each entry.
MEASURED TARGET: KRAS G12V (Homo sapiens, UniProt P01116+P62937, G12V)
Sequence (P01116 1-169 isoform P01116-2 G12V limits assumed, one chain of several): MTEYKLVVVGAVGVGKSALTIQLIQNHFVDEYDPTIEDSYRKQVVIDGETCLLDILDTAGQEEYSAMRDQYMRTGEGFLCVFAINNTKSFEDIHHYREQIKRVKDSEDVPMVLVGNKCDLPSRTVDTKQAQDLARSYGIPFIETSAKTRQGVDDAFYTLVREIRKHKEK
ASSAY PROTOCOL: Ras-Raf disruption / FRET / MOA assay (BRAF RBD)
Format: biochemical
CONDITION NOTES: Ras-Raf disruption, with Cyclophilin A; read-out: KRAS G12V FRET data IC50
pIC50: −log10 of the molar value.

I would be grateful if you could share the reported pIC50 for CCn1c(-c2cccnc2[C@H](C)OC)c2c3cc(ccc31)-c1cc(O)cc(c1)C[C@H](NC(=O)[C@H](C(C)C)N(C)C(=O)[C@H]1CCN(S(=O)(=O)[C@@H]3CN3C)C1)C(=O)N1CCC[C@H](N1)C(=O)OCC(C)(C)C2 (single isomer, unassigned) . 6.00 to 7.00

I would be grateful if you could share the reported pIC50 for CCn1c(-c2cccnc2[C@H](C)OC)c2c3cc(ccc31)-c1csc(n1)C[C@H](NC(=O)[C@H](C(C)C)N(C)C(=O)N1CCN(C(=O)[C@H]3CN3)[C@@H](C)C1)C(=O)N1CCC[C@H](N1)C(=O)OCC(C)(C)C2 . 6.00 to 7.00

I would be grateful if you could share the reported pIC50 for CCn1c(-c2cccnc2[C@H](C)OC)c2c3cc(ccc31)-c1csc(n1)C[C@H](NC(=O)[C@H](C(C)C)N(C)C(=O)N(C)C1CN(C(=O)[C@H]3CN3)C1)C(=O)N1CCC[C@H](N1)C(=O)OCC(C)(C)C2 . 6.00 to 7.00

I would be grateful if you could share the reported pIC50 for CCn1c(-c2cnccc2COC)c2c3cc(ccc31)-c1cccc(c1)C[C@H](NC(=O)[C@H](C(C)C)N(C)C(=O)C1CCC(N=C=Nc3ccc(OC)cc3)C1)C(=O)N1CCC[C@H](N1)C(=O)OCC(C)(C)C2 (stereo partly shown) . < 5.00

Data origin: patent US20230233569A1
